# System: Trypanosoma brucei rhodesiense
# ASSAY METHOD TEXT: Trypanocidal activity against Trypanosoma brucei rhodesiense IL1501 assessed as parasite growth inhibition at 50 ug/ml incubated for 3 days by Celltiter-Glo luminescence assay
# Format: functional
# Set-up: scale not given: the % may be the effect or the level left
# CONDITION DESCRIPTION: dose 50 µg/ml; time 3 day
Please respond with Fulfilled when measured Activity is strictly beneath 7%, and with Not fulfilled in all other cases.

{"MOLECULE": "COc1ccc(O[C@@H]2O[C@H](CO)[C@@H](O)[C@H](O)[C@H]2O)cc1OC", "ASSIGNED CLASS": "Fulfilled"}
{"MOLECULE": "Oc1ccc([C@H]2Oc3cc(O)ccc3[C@H](c3c(O)cc(O)c4c3O[C@H](c3ccc(O)c(O)c3)[C@H](O)C4)[C@@H]2O)cc1", "ASSIGNED CLASS": "Fulfilled"}
{"MOLECULE": "Cc1cc(O)c(C(=O)c2c(O)cccc2O[C@@H]2O[C@H](CO)[C@@H](O)[C@H](O)[C@H]2O)c(C(=O)O)c1", "ASSIGNED CLASS": "Fulfilled"}
{"MOLECULE": "Oc1ccc2c(c1)O[C@H](c1ccc(O)c(O)c1)[C@@H](O)[C@H]2c1c(O)cc(O)c2c1O[C@H](c1cc(O)c(O)c(O)c1)[C@H](O)C2", "ASSIGNED CLASS": "Not fulfilled"}
{"MOLECULE": "Oc1cc(O)c2c(c1)O[C@H](c1cc(O)c(O)c(O)c1)[C@H](O)C2 [EPIGALLOCATECHIN]", "ASSIGNED CLASS": "Not fulfilled"}
{"MOLECULE": "Oc1ccc([C@H]2Oc3c(c(O)cc(O)c3[C@@H]3c4ccc(O)cc4O[C@H](c4ccc(O)c(O)c4)[C@H]3O)C[C@H]2O)cc1", "ASSIGNED CLASS": "Not fulfilled"}

###

Recorded measurements of Activity, one per entry
# Test system: Trypanosoma congolense
# ASSAY METHOD TEXT: Trypanocidal activity against Trypanosoma congolense IL3000 assessed as parasite growth inhibition at 50 ug/ml incubated for 3 days by Celltiter-Glo luminescence assay
# Design: scale not given: the % may be the effect or the level left
# CONDITION DESCRIPTION: dose 50 µg/ml; time 3 day

{"MOLECULAR STRING": "Oc1ccc([C@H]2Oc3cc(O)ccc3[C@@H](c3c(O)cc(O)c4c3O[C@H](c3cc(O)c(O)c(O)c3)[C@@H](O)C4)[C@@H]2O)cc1", "Activity [%]": 99.74}
{"MOLECULAR STRING": "Oc1ccc([C@H]2Oc3cc(O)ccc3[C@H](c3c(O)cc(O)c4c3O[C@H](c3ccc(O)c(O)c3)[C@H](O)C4)[C@@H]2O)cc1", "Activity [%]": 35.26}
{"MOLECULAR STRING": "Oc1ccc2c(c1)O[C@H](c1ccc(O)c(O)c1)[C@@H](O)[C@H]2c1c(O)cc(O)c2c1O[C@H](c1ccc(O)c(O)c1)[C@H](O)C2", "Activity [%]": 37.33}

###

# Tested on: Trypanosoma brucei rhodesiense
# ASSAY METHOD TEXT: Trypanocidal activity against Trypanosoma brucei rhodesiense IL1501 assessed as parasite growth inhibition at 50 ug/ml incubated for 3 days by Celltiter-Glo luminescence assay
# Format: functional
# Set-up: scale not given: the % may be the effect or the level left
# CONDITION DESCRIPTION: dose 50 µg/ml; time 3 day
Everything with Activity lower than 9% is false; everything else, including exactly 9%, is true.

{"MOLECULE": "Oc1ccc([C@H]2Oc3cc(O)ccc3[C@H](c3c(O)cc(O)c4c3O[C@H](c3cc(O)c(O)c(O)c3)[C@H](O)C4)[C@@H]2O)cc1", "ASSIGNED CLASS": "true"}
{"MOLECULE": "COc1cc(O)cc(OC)c1OC [ANTIAROL]", "ASSIGNED CLASS": "true"}
{"MOLECULE": "Oc1ccc2c(c1)O[C@H](c1cc(O)c(O)c(O)c1)[C@@H](O)[C@H]2c1c(O)cc(O)c2c1O[C@H](c1ccc(O)c(O)c1)[C@H](O)C2", "ASSIGNED CLASS": "true"}
{"MOLECULE": "COc1cc(O[C@@H]2O[C@H](CO)[C@@H](O)[C@H](O)[C@H]2O[C@@H]2O[C@@H](C)[C@H](O)[C@@H](O)[C@H]2O)cc(OC)c1OC", "ASSIGNED CLASS": "false"}
{"MOLECULE": "Oc1ccc2c(c1)O[C@H](c1ccc(O)c(O)c1)[C@@H](O)[C@@H]2c1c(O)cc(O)c2c1O[C@H](c1ccc(O)c(O)c1)[C@@H](O)C2", "ASSIGNED CLASS": "false"}
